Read-out: ABC Transporter (ABCB11), ABCB11 (gene 8647)
Experiment: LTEA_HepaRG_ABCB11: Life Technologies and Expression Analysis (LTEA) Assay for ABC Transporter (ABCB11) using HepaRG (AID 2283463)
Details: mRNA level, 48 h; actives raise or lower the signal
Active and inactive are the calls of the source. How the source made its calls: active means hit-call score of the fitted dose curve at least 0.9, where 1 is the maximum; inactive means score below 0.9.
Hi there, use one of these labels in your reply, thanks! active, inactive

Below are worked cases with known answers.
# smiles_input, label_class
data = [
    ("Clc1cc(Cl)c2c(c1)N=C1CCCCCN1C2", "inactive"),
    ("Cc1ccc(C(C)C)cc1", "inactive"),
    ("O=c1[nH]sc2ccccc12", "inactive"),
    ("O=c1ccc2ccccc2o1", "inactive"),
    ("O=c1c(-c2ccc(O)cc2)coc2cc(O)cc(O)c12", "active"),
    ("O=C1CCC(C2CCCCC2)CC1", "inactive"),
    ("O=C(O)c1ccccc1C(=O)OCc1ccccc1", "inactive"),
    ("CCCCCCCCCCCC[N+](C)(C)C", "active"),
    ("COc1ccc2cc(S(=O)(=O)N[C@H](CC(=O)N[C@H](Cc3ccc(CN4[C@H](C)CCC[C@@H]4C)cc3)C(=O)N(C)C(C)C)c3ccc4c(c3)OCO4)ccc2c1", "active"),
    ("C[C@]12CC[C@@H]3c4ccc(O)cc4CC[C@H]3[C@@H]1CC[C@H]2O", "active"),
]

Q) Entry CCCCCCCCCCCO : call = ?
A) inactive

Q) What outcome does the record of this test show for Cc1occc1C(=O)Nc1ccc(C(=O)N2CCC(F)(F)/C(=C\C(=O)N3CCC(N4CCCCC4)CC3)c3ccccc32)cc1 ?
A) active

----------
Target: human Muscarinic, M4 Receptor, CHRM4 (gene 1132)
Assay: NVS_GPCR_hM4: NovaScreen (NVS) G Protein-Coupled Receptor Assay for human Muscarinic, M4 Receptor (AID 2283274)
Inconclusive results are not listed. The source made the active and inactive calls. How the source made its calls: active means hit-call score of the fitted dose curve at least 0.9, where 1 is the maximum; inconclusive means response in the unintended direction; inactive means score below 0.9.
metric_name: AC50

The following compounds have reported results that may help.
# smiles_input, AC50
data = [
    ("COc1cc(C(=O)NC2CCN(C)CC2)ccc1Nc1ncc2c(n1)N(C1CCCC1)CC(F)(F)C(=O)N2C", "16.7 µM (active)"),
    ("CCN(CC)C(=O)c1cc(S(=O)(=O)Cc2ccccc2)c(N2CCC(c3ccccc3)CC2)cc1N(CC)CCN(C)C", "9.84 µM (active)"),
    ("CCCCCCCCOC(=O)c1cc(O)c(O)c(O)c1", "8.67 µM (active)"),
    ("Cc1occc1C(=O)Nc1ccc(C(=O)N2CCC(F)(F)/C(=C\\C(=O)N3CCC(N4CCCCC4)CC3)c3ccccc32)cc1", "7.11 µM (active)"),
    ("CN(C)C(=O)C1(N2CCCCC2)CCN(CC[C@@]2(c3ccc(Cl)c(Cl)c3)CN(C(=O)c3ccccc3)CCO2)CC1", "6.99 µM (active)"),
]

Q) GET /values?readout=AC50&item= Clc1cc(Cl)c2c(c1)N=C1CCCCCN1C2
A) 1.71 µM (active)

Q) Given the entry CN(C)c1ccc(C(=C2C=CC(=[N+](C)C)C=C2)c2ccc(N(C)C)cc2)cc1 , report its measured AC50.
A) 0.863 µM (active)

Q) Record request: AC50 value, item NCc1cccc(C2CCN(C(=O)c3ccc(C#Cc4ccccc4F)o3)CC2)c1
A) 0.882 µM (active)

Q) Data request, read-out AC50, for CCOC(=O)O[C@H](C)OC(=O)c1ccc2c(c1)cc(C(=O)NC1CCN(C(C)C)CC1)n2Cc1cc(-c2ccc(Cl)s2)on1
A) 2.17 µM (active)

Q) Any idea what AC50 was measured for CCCCCCCCCCCC[N+](C)(C)C ?
A) 2.77 µM (active)

----------
Test: CCTE_Shafer_MEA_acute_spike_number: CCTE's Neural Acute Assay for Total Number of Spikes, Shafer Lab (AID 2284008)
Active and inactive are the calls of the source. The calls were made as follows: active = hit-call score of the fitted dose curve at least 0.9, where 1 is the maximum; inactive = score below 0.9.
Give your call using only these classes: True for active, False for inactive

# compound, label_class
data = [
    ("Cc1cc2c(cc1C(F)(F)F)N(C(=O)Nc1ccc(Oc3cccnc3C)nc1)CC2", "False"),
    ("CC(C)(c1cc(Br)c(O)c(Br)c1)c1cc(Br)c(O)c(Br)c1", "False"),
    ("OC12N=C(c3ccccc3)SC1Cc1cc(Cl)ccc12 (stereo unspecified)", "True"),
    ("NCc1cccc(C2CCN(C(=O)c3ccc(C#Cc4ccccc4F)o3)CC2)c1", "True"),
    ("C[C@]12CC[C@@H]3c4ccc(O)cc4CC[C@H]3[C@@H]1CC[C@H]2O", "False"),
]

Could you now consider this next compound?
Q) Check the results log: what was the call for CN(C[C@@H](CC[N+]12CCC(C3CCCCC3)(CC1)CC2)c1ccc(Cl)c(Cl)c1)C(=O)c1cc(C(F)(F)F)cc(C(F)(F)F)c1 ?
A) True

----------
Read-out: Interleukin 6 (IL6), IL6 (gene 3569)
Assay: LTEA_HepaRG_IL6: Life Technologies and Expression Analysis (LTEA) Assay for Interleukin 6 (IL6) using HepaRG (AID 2283509)
Conditions: mRNA level, 48 h; actives raise or lower the signal
Activity calls are given as the source filed them. The calls were made as follows: active = hit-call score of the fitted dose curve at least 0.9, where 1 is the maximum; inactive = score below 0.9.
Hi there, use one of these labels in your reply, thanks! active, inactive

# molecule, label_class
data = [
    ("CCO[Si](CCCNC(N)=O)(OCC)OCC", "inactive"),
    ("CCN(CC)C(=O)c1cc(S(=O)(=O)Cc2ccccc2)c(N2CCC(c3ccccc3)CC2)cc1N(CC)CCN(C)C", "active"),
    ("CO[C@H]1/C=C/O[C@@]2(C)Oc3c(C)c(O)c4c(O)c(c(/C=N/N5CCN(C)CC5)c(O)c4c3C2=O)NC(=O)/C(C)=C\\C=C\\[C@H](C)[C@H](O)[C@@H](C)[C@@H](O)[C@@H](C)[C@H](OC(C)=O)[C@@H]1C", "inactive"),
    ("COc1cc(C(=O)NC2CCN(C)CC2)ccc1Nc1ncc2c(n1)N(C1CCCC1)CC(F)(F)C(=O)N2C", "active"),
    ("CCCCCc1ccc(N)cc1", "inactive"),
    ("Cc1cc(F)ccc1-c1cc(N2CC[C@@H](O)[C@H]2CO)ncc1N(C)C(=O)C(C)(C)c1cc(C(F)(F)F)cc(C(F)(F)F)c1", "active"),
]

Q) What outcome does the record of this test show for Cc1cn([C@H]2C[C@H](N=[N+]=[N-])[C@@H](CO)O2)c(=O)[nH]c1=O ?
A) inactive

Q) Hi team, can someone confirm the assay call for CCCCCCCCCC(=O)O ?
A) inactive

Q) Which outcome did this test record for the molecule CN(C[C@@H](CC[N+]12CCC(C3CCCCC3)(CC1)CC2)c1ccc(Cl)c(Cl)c1)C(=O)c1cc(C(F)(F)F)cc(C(F)(F)F)c1 ?
A) active

----------
Assay: BSK_4H_SRB: Viability Assessment in the BioMAP Diversity Plus: 4H Assay (AID 2283027);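 further: cells exposed to compound for 24 h before staining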
Settings: primary human endothelial cells (HUVEC)
The source made the active and inactive calls. The calls were made as follows: active = hit-call score of the fitted dose curve at least 0.9, where 1 is the maximum; inactive = score below 0.9.
Permitted responses: active, inactive

Use these answered entries as a reference point.
# smiles_input, label_class
measured = [
    ("CCOC(=O)O[C@H](C)OC(=O)c1ccc2c(c1)cc(C(=O)NC1CCN(C(C)C)CC1)n2Cc1cc(-c2ccc(Cl)s2)on1", "active"),
    ("Cc1cccc2ccccc12", "inactive"),
    ("CCCCCCCCN(C)CCCCCCCC", "inactive"),
    ("CCCCCCCCOC(=O)c1cc(O)c(O)c(O)c1", "active"),
    ("CCN(Cc1cccnc1)C(=O)c1cccc(Cl)c1[C@]1(C)C(=O)N(Cc2ccc(OC)cc2OC)c2ccc(Cl)cc21", "active"),
]

Then this compound:
Q) Call for entry Oc1ccc2ccccc2c1 :
A) inactive

----------
Target: Bile acid receptor (Homo sapiens)
Assay: OT_FXR_FXRSRC1_0480: Odyssey Thera (OT) 8-hour HEK293T Protein-Complementation Assay for Farnesoid X receptor/SRC-1 Co-activator (AID 2283383)
Inconclusive results are not listed. Active and inactive are the calls of the source. The calls were made as follows: active = hit-call score of the fitted dose curve at least 0.9, where 1 is the maximum; inconclusive = response in the unintended direction; inactive = score below 0.9.
Thanks in advance; please answer with one of these: active, inactive

Take a look at these entries with their results.
# smiles_input, label_class
records = [
    ("CCCCCCCCOC(=O)c1cc(O)c(O)c(O)c1", "active"),
    ("COc1cccc([C@H](O)C2CCN(CCc3ccc(F)cc3)CC2)c1OC", "inactive"),
    ("C[C@]12CC[C@@H]3c4ccc(O)cc4CC[C@H]3[C@@H]1CCC2=O", "inactive"),
    ("CC1(C)NC(=O)N(c2ccc([N+](=O)[O-])c(C(F)(F)F)c2)C1=O", "inactive"),
    ("Cc1cn([C@H]2C[C@H](N=[N+]=[N-])[C@@H](CO)O2)c(=O)[nH]c1=O", "inactive"),
]

Consider now this further compound.
Q) Call for entry CC[C@H](NC(=O)c1cc(F)ccc1NS(=O)(=O)c1cccc2cccnc12)c1ccccc1 :
A) active
